MEASURED_TARGET: SARS-CoV-2 prefusion-stabilized spike protein (SARS-CoV-2-PreS) (SARS-CoV-2, UniProt P0DTC2 14-1208)
TEST_SUMMARY: Biacore, apparent affinity
pKd: −log10 of the molar value.
QUANTITY_NAME: pKd

Examples from the recorded data:
Per the record, 19E10 VHH-Fc (Fc fusion) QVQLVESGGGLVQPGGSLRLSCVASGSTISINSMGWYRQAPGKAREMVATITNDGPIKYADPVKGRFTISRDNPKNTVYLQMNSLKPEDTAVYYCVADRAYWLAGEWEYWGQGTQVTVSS has pKd of > 9.70

Per the record, 1E4 VHH-Fc (Fc fusion) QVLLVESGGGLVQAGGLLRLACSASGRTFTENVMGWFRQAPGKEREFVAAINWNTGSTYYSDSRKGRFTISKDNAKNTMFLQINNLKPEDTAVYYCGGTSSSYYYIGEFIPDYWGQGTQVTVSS has pKd of > 9.70

Per the record, 1A11 VHH-Fc (Fc fusion) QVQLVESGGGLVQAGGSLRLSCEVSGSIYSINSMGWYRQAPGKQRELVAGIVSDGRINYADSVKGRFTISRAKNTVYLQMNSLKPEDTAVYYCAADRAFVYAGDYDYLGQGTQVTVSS has pKd of > 9.70

Next:
Per the record, 19C10 VHH (VHH) VHH: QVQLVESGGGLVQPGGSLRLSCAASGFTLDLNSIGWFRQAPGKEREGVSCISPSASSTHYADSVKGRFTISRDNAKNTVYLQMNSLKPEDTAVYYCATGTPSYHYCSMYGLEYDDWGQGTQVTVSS has pKd of > 7.30
